Where these numbers come from: the antibiotic and cytotoxicity screens of Wong et al. (2023)

# System: HSkMC
# method: cytotoxicity call (relative viability < 0.9)
# measurement.conditions: 10 µM
About 1,500 (3.8%) of roughly 39,000 compounds were called active. The list comes from a sample in which actives are over-represented; it also holds close analogues and randomly drawn compounds.
quantity.kind: cytotoxicity call

COc1cccc(CNC(=O)c2cc3c(c(-c4cccc(-c5cccc(C#N)c5)c4)n2)[C@@H](CCO)N([S@](=O)C(C)(C)C)C3)c1 = inactive
CO[C@@H]1CN(C)C(=O)c2cc(NS(C)(=O)=O)ccc2OC[C@@H](C)N(C(=O)CN(C)C)C[C@@H]1C = inactive
Nc1ccc(Nc2ccccc2)cc1 = inactive
C[C@H]1CN([C@@H](C)CO)C(=O)c2cccc(NS(=O)(=O)c3cn(C)cn3)c2O[C@@H]1CN(C)C(=O)NC1CCCCC1 = inactive

* * *

# Test system: HSkMC
# method: cytotoxicity call (relative viability < 0.9)
# measurement.conditions: 10 µM
Out of some 39,000 compounds screened, about 1,500 (3.8%) were called active. This is one part of a sample in which actives are shown more often than they occur.
Respond using exactly one of the listed classes: true (1) for active, false (0) for inactive

Example entries begin here.
CCC(=C(c1ccccc1)c1ccc(OCCN(C)C)cc1)c1ccccc1.O=C(O)CC(O)(CC(=O)O)C(=O)O = false (0)
O=C(Nc1ccc2ccccc2c1)c1ccc(Cl)cc1Cl = false (0)

Please indicate how the test categorized CN(C)CCOc1ccc(C(=C(CCCl)c2ccccc2)c2ccccc2)cc1.O=C(O)CC(O)(CC(=O)O)C(=O)O . true (1)

Please indicate how the test categorized C[C@@H]1CN([C@H](C)CO)C(=O)Cc2cc(NS(=O)(=O)c3ccccc3)ccc2O[C@@H]1CN(C)Cc1ccc(-c2ccccc2)cc1 . false (0)

Please indicate how the test categorized C[C@@H]1CCCCO[C@@H](CN(C)C(=O)Nc2ccc3c(c2)OCO3)[C@@H](C)CN([C@@H](C)CO)C(=O)c2cc(NC(=O)NC3CCCCC3)ccc2O1 . false (0)

Please indicate how the test categorized C[C@H]1CCCCO[C@H](CN(C)C(=O)C2CCCCC2)[C@@H](C)CN([C@@H](C)CO)C(=O)c2cc(NC(=O)Nc3cccc4ccccc34)ccc2O1 . false (0)

Please indicate how the test categorized C[C@@H]1CN([C@@H](C)CO)C(=O)c2cc(NC(=O)Nc3cccc4ccccc34)ccc2O[C@@H](C)CCCCO[C@H]1CN(C)C(=O)Nc1cccc2ccccc12 . false (0)

* * *

# System: HSkMC
# method: cytotoxicity call (relative viability < 0.9)
# measurement.conditions: 10 µM
Hit rate of the full screen: of about 39,000 compounds, about 1,500 (3.8%) were called active. What follows is part of a selection rich in actives, with near analogues and random picks from the rest.
Respond using exactly one of the listed classes: Y for active, N for inactive

Please indicate how the test categorized CO[C@@H]1CN(C)C(=O)c2ccc(NS(C)(=O)=O)cc2OC[C@@H](C)N(S(=O)(=O)CC(F)(F)F)C[C@H]1C . N

* * *

# Test system: HSkMC
# method: cytotoxicity call (relative viability < 0.9)
# measurement.conditions: 10 µM
Screen size: about 39,000 compounds; about 1,500 (3.8%) were called active. Many of the other results were omitted from the sample, so actives are more common in it than they were.
Respond using exactly one of the listed classes: class 1 (active), class 0 (inactive)

Example entries begin here.
Cc1ccc(S(=O)(=O)Nc2ccc3c(c2)C(=O)N([C@@H](C)CO)C[C@H](C)[C@H](CN(C)Cc2ccc(C(F)(F)F)cc2)O3)cc1 = class 0
Cc1ccc(S(=O)(=O)Nc2ccc3c(c2)C(=O)N([C@H](C)CO)C[C@@H](C)[C@@H](CN(C)Cc2ccc(C(F)(F)F)cc2)O3)cc1 = class 1
Cc1ccc(S(=O)(=O)Nc2ccc3c(c2)C(=O)N([C@H](C)CO)C[C@@H](C)[C@H](CN(C)Cc2ccc(C(F)(F)F)cc2)O3)cc1 = class 1
COc1ccc(-c2ccccc2)cc1NC(=O)c1ccc2nc(C)c(N(C)C(=O)CCc3ccccc3)n2c1 = class 0
C[C@H](CO)N1C[C@H](C)[C@H](CN(C)S(C)(=O)=O)Oc2c(NS(=O)(=O)c3cn(C)cn3)cccc2C1=O = class 0

We now examine a further molecule.
Please indicate how the test categorized C=CCOC(=O)[C@H]1[C@@H]2C(=O)O[C@@H](c3ccccc3)[C@@H](c3ccccc3)N2[C@@H](c2ccc(OCCOC(=O)[C@H]3C[C@H]4C(=O)NCC(=O)N4[C@H]3c3ccc(O)cc3)cc2)[C@]12C(=O)Nc1ccc(I)cc12 . class 0

* * *

# Tested on: HSkMC
# method: cytotoxicity call (relative viability < 0.9)
# measurement.conditions: 10 µM
Among all 39,000 compounds or so, about 1,500 (3.8%) were called active. Many of the other results were omitted from the sample, so actives are more common in it than they were.
Respond using exactly one of the listed classes: active, inactive

Example entries begin here.
C[C@@H]1CCCCO[C@H](CN(C)C(=O)Cc2ccccc2)[C@H](C)CN([C@H](C)CO)C(=O)c2cc(NS(=O)(=O)c3cccs3)ccc2O1 = inactive
O=C1CNC(=O)N1C1CCNCC1 = inactive

Please indicate how the test categorized Cc1noc(C)c1NC(=O)Nc1ccc2c(c1)C(=O)N([C@@H](C)CO)C[C@H](C)[C@H](CN(C)C(=O)Nc1ccc(F)cc1)OCCCC[C@H](C)O2 . inactive

Please indicate how the test categorized CC[C@@H](CO)NC(=O)c1ccc(N)cc1 . inactive

Please indicate how the test categorized C[C@@H]1CN([C@@H](C)CO)C(=O)c2cc(NC(=O)Nc3ccc(C(F)(F)F)cc3)ccc2O[C@H]1CN(C)Cc1ccc(C(F)(F)F)cc1 . active

* * *

# System: HSkMC
# method: cytotoxicity call (relative viability < 0.9)
# measurement.conditions: 10 µM
Screen size: about 39,000 compounds; about 1,500 (3.8%) were called active. The full list was thinned out, with actives kept by preference.
quantity.kind: cytotoxicity call

Use these answered entries as a reference point.
C[C@@H]1CN([C@@H](C)CO)C(=O)c2cc(NC(=O)Nc3ccccc3)ccc2O[C@@H](C)CCCCO[C@@H]1CN(C)CC1CCCCC1 = active
CC(C)(C)[S@@](=O)N1Cc2cc(C(=O)NCc3ccc4c(c3)OCO4)nc(CCNS(=O)(=O)c3ccccc3)c2[C@H]1CCO = inactive
C[C@@H]1CCCCO[C@H](CN(C)Cc2ccc(Cl)c(Cl)c2)[C@@H](C)CN([C@@H](C)CO)C(=O)c2cc(NC(=O)Nc3ccc4c(c3)OCO4)ccc2O1 = inactive
C[C@H]1CCCCO[C@H](CN(C)CC2CCCCC2)[C@@H](C)CN([C@@H](C)CO)C(=O)c2cc(NC(=O)Nc3ccccc3)ccc2O1 = inactive
C[C@H](CO)N1C[C@H](C)[C@@H](CN(C)Cc2cccc(C(F)(F)F)c2)OCc2ccccc2-c2c(n(C)c3ccccc23)C1=O = inactive
C[C@@H]1CCCCO[C@@H](CN(C)Cc2ccc(Cl)c(Cl)c2)[C@H](C)CN([C@H](C)CO)C(=O)c2cc(NC(=O)Nc3ccc4c(c3)OCO4)ccc2O1 = inactive

Tell me cytotoxicity call reported for COc1ccc(NC(=O)Nc2ccc3c(c2)C(=O)N([C@H](C)CO)C[C@@H](C)[C@@H](CN(C)CC2CCCCC2)OCCCC[C@@H](C)O3)cc1 active

Tell me cytotoxicity call reported for C[C@H](CO)N1C[C@H](C)[C@H](CN(C)Cc2cccc(C(F)(F)F)c2)OCc2ccccc2-c2c(n(C)c3ccccc23)C1=O active

Tell me cytotoxicity call reported for C[C@H]1CCCCO[C@H](CN(C)Cc2ccc(Cl)c(Cl)c2)[C@@H](C)CN([C@@H](C)CO)C(=O)c2cc(NC(=O)Nc3ccc4c(c3)OCO4)ccc2O1 inactive

Tell me cytotoxicity call reported for COc1ccc(S(=O)(=O)N(C)C[C@H]2OCCCC[C@@H](C)Oc3ccc(NC(=O)Nc4ccccc4)cc3C(=O)N([C@@H](C)CO)C[C@@H]2C)cc1 inactive

Tell me cytotoxicity call reported for C[C@@H]1CN([C@@H](C)CO)C(=O)c2c(c3ccccc3n2C)-c2ccccc2CO[C@H]1CN(C)Cc1cccc(F)c1 inactive

Tell me cytotoxicity call reported for CN(C)CCN1C[C@H]2OCCN(Cc3cnn(C)c3)[C@H]2C1 inactive

Tell me cytotoxicity call reported for C[C@@H]1CN([C@@H](C)CO)C(=O)c2cc(NC(=O)Cc3cn(C)c4ccccc34)ccc2O[C@@H]1CN(C)Cc1ccc(C(F)(F)F)cc1 inactive

Tell me cytotoxicity call reported for CCCCCCCCCCCCCCCC[N+](C)(C)Cc1ccccc1.[Cl-] active

* * *

# Tested on: HSkMC (human skeletal muscle cells)
# method: cytotoxicity call (relative viability < 0.9)
# measurement.conditions: 10 µM
About 1,500 (3.8%) of roughly 39,000 compounds were called active. Shown is part of a subset that was picked to be rich in actives.
Respond using exactly one of the listed classes: True (active), False (inactive)

Example entries begin here.
C[C@H](CO)N1C[C@H](C)[C@H](CN(C)C(=O)Nc2ccc(C(F)(F)F)cc2)Oc2c(NC(=O)Nc3cccc4ccccc34)cccc2C1=O = False
C[C@H](CO)N1C[C@H](C)[C@@H](CN(C)C(=O)Nc2ccc(C(F)(F)F)cc2)Oc2c(NC(=O)Nc3cccc4ccccc34)cccc2C1=O = True

We now examine a further compound.
Please indicate how the test categorized O=C(c1ccc(Cl)cc1)n1c2ccccc2c2ccccc21 . False
